Ref: ChEMBL document CHEMBL1201862

Tested on: RXF 393
Assay Notes: NCI tumour cell line growth inhibition, 48 h
Active and inactive are the calls of the source. No stated cut-off is given here; in the data, active = GI50 up to about 1.1 µM and inactive = higher.
Parameter: GI50

[
  {
    "Compound": "O=S(O)c1cc(Cl)cc(Cl)c1O",
    "Test Target": "RXF 393",
    "Reading": "> 100 µM (inactive)"
  }
]

Problem: Sample `CO[C@H]1C[C@H](n2cc(C)c(=O)[nH]c2=O)O[C@@H]1CO` — what was its GI50?
Result: > 100 µM (inactive)

Problem: GET /values?readout=GI50&item= `COC(=O)/C=C\n1nc(Br)c(=O)[nH]c1=O`
Result: 83.9 µM (inactive)
